Reference for the values: the supplement of paper PMC9233669

system: biotinyl-Met-oxazolone; assay: self-aminoacylation, catalytic enhancement (BMO) (fold over background); higher = more active; k-Seq, kA / k0A0; sequences stand for … in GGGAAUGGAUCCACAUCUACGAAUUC…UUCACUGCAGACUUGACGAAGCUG
Fewer inactive variants are shown than the library holds.
So I've got a bunch of sequences here, and I need their self-aminoacylation values.
In your answer, state the number alone without any accompanying words.

[Q] State the recorded self-aminoacylation for this entry: CUACAUCAAACAAUCGGGCUG [Fam1A.1 aminoacylation ribozyme variant]
[A] 1.44

[Q] Same question, CAGUUUGCUAUUAGUCGCAAG [Fam3.1 aminoacylation ribozyme variant] this time
[A] 1.25

[Q] And then AUUCACUUUGGUCAUCGGGUG [Fam2.2 aminoacylation ribozyme variant] , what is it?
[A] 8.05

[Q] Queued: CCACACUUCCAUCAAUCGGUC [Fam1B.1 aminoacylation ribozyme variant]
[A] 0.561

[Q] Now this one: CCACACUUCAAGUAGUCGGUC [Fam1B.1 aminoacylation ribozyme variant]
[A] 0.857

[Q] And what about the sequence ACUCACCAAGGUCAUCGGGUG [Fam2.2 aminoacylation ribozyme variant] ?
[A] 5.24

[Q] Now consider UUUUACCUAGGUCAUCGGGUG [Fam2.2 aminoacylation ribozyme variant] and answer again.
[A] 10.3

[Q] Repeat for the following sequence: AUUACCCCGGUCAGCGAGUGA [Fam2.1 aminoacylation ribozyme variant]
[A] 4.82

[Q] Follow-up entry: CUAGUUCACACAAUCGGUCUG [Fam1A.1 aminoacylation ribozyme variant]
[A] 1.13

[Q] Do the same for UUUCACCUAGCUCAUCGGGUG [Fam2.2 aminoacylation ribozyme variant] please
[A] 1.77

[Q] Same read-out for AUUUACCUGGGUCAUCGGGUG [Fam2.2 aminoacylation ribozyme variant] ?
[A] 18.5

[Q] What do you get for AUUCACCUAGGGCAUCGGGUU [Fam2.2 aminoacylation ribozyme variant] ?
[A] 2.08

[Q] Again, but for CCACACUUCAAGCAAUCUGCC [Fam1B.1 aminoacylation ribozyme variant]
[A] 1.3

[Q] How about CUACUUCAAACAUUCGGUUUG [Fam1A.1 aminoacylation ribozyme variant] ?
[A] 1.05

[Q] Can you check AUAACCCUGGUCAUCGAGUCA [Fam2.1 aminoacylation ribozyme variant] next?
[A] 0.958

[Q] Repeat with CUUACCCUGUUCAUCGAGUGA [Fam2.1 aminoacylation ribozyme variant]
[A] 4.32

[Q] Now consider CCACACUAGAAGCAAUCGGUC [Fam1B.1 aminoacylation ribozyme variant] .
[A] 0.747

[Q] Try this sequence next: AUUGCCCUGGCCAUCGAGUGA [Fam2.1 aminoacylation ribozyme variant]
[A] 3.8
